Parameter growth: see the listing below.
system: EKVX NSCLC; experiment: NCI-60 one-dose screen, 48 h (100 = growth as untreated, 0 = no growth, -100 = all killed); conditions: 10 µM unless noted
The panel holds about 83,000 compounds, 20% with a hit somewhere; the sample as a whole holds those more often.

Molecular String	growth, %
Nc1nc(Nc2cccnc2)sc1C(=O)c1ccccc1F	50.7
C=C1C(=O)O[C@H]2[C@H]1CC/C(COC(=O)NCCCCNC(=O)OC/C1=C/CC[C@@]3(C)O[C@H]3[C@H]3OC(=O)C(=C)[C@@H]3CC1)=C\CC[C@@]1(C)O[C@@H]21	89
Cn1c(=O)c2c(nc(Nc3cc(=O)[nH]c(=O)[nH]3)n2Cc2ccccc2)n(C)c1=O	90
